Quantity Name: melting point

INSERT INTO measurements (compound, reading) VALUES
  ('O=C(C=Cc1cccnc1)NCCCCN1CCN(c2ccccc2-c2ccccc2)CC1', '115 °C'),
  ('O=C(C=Cc1cccnc1)NCCC(O)CN1CCN(C(c2ccccc2)c2ccccc2)CC1 (stereo not shown)', '168 to 171 °C');

Moving on to the next compound.
Using the record for O=C(C=Cc1cccnc1)NCCN1CCN(S(=O)(=O)c2ccc3ccccc3c2)CC1 , report its melting point.
183 to 184 °C

* * *

Quantity Name: melting point

INSERT INTO measurements (compound, quantity_name, reading) VALUES
  ('O=C(C=Cc1cccnc1)NOCCCN1CCN(C(c2ccccc2)c2ccccc2)CC1', 'melting point', '115 to 117 °C'),
  ('O=C(C=Cc1cccnc1)NCCCCN1CCN(c2cccc3c2CCCC3)CC1', 'melting point', '108 to 109 °C'),
  ('O=C(C=Cc1cccnc1)NCCCS(=O)(=O)N1CCN(C(c2ccccc2)c2ccccc2)CC1', 'melting point', '167 to 168 °C');

Moving on to the next compound.
Using the record for O=C(C=Cc1cccnc1)NCCCCN1CCN(C2CCCc3ccccc32)CC1 (stereo not shown) , report its melting point.
110 to 114 °C

These entries and their values trace back to patent US6903118B1.
